tested on: plasma membranes of Leishmania amazonensis promastigotes; test: Best fit of eq. 3 to EC50 versus cell concentration (biophysical parameters); format: cell-based; settings: Leishmania amazonensis, read-out: cw50, concentration in the aqueous phase that inhibits parasite growth by half

smiles.record	EC50, µM
COc1cc(CCCCCCCCOP(=O)([O-])OCC[N+](C)(C)C)cc(OC)c1	22.8

###

assay: Haemolytic potential in PBS; assay type: cell-based; conditions: human, washed erythrocytes in PBS, 6.6 mM (22 times 300 µM), haematocrit 2%, 2 h at 36.5 °C; read-out: Erythrocytes in PBS - % haemolysis
// reported hemolysis at 2 h, 6.6 mM for each item listed
readout.label: hemolysis at 2 h, 6.6 mM

compound	readout.label	value.reported
COc1cccc(CCCCCCCCOP(=O)([O-])OCC[N+](C)(C)C)c1 [TC387]	hemolysis at 2 h, 6.6 mM	< 50%
COc1cc(CCCCCCCCOP(=O)([O-])OCC[N+](C)(C)C)cc(OC)c1 [TC437]	hemolysis at 2 h, 6.6 mM	< 50%

###

assay: Haemolytic potential in whole blood; type: cell-based, human; conditions: human, whole blood reconstituted from plasma and blood cells, 7.5 mM, 24 h at 7 °C; read-out: Whole blood - % haemolysis
// reported hemolysis at 24 h, 7.5 mM for each item listed
readout.label: hemolysis at 24 h, 7.5 mM (%)

smiles.record	readout.label	value.reported
COc1cccc(CCCCCCCCOP(=O)([O-])OCC[N+](C)(C)C)c1	hemolysis at 24 h, 7.5 mM	20.5
COc1cc(CCCCCCCCOP(=O)([O-])OCC[N+](C)(C)C)cc(OC)c1	hemolysis at 24 h, 7.5 mM	40.6

###

experiment: Haemolytic potential in whole blood; type: cell-based, human; conditions: human, whole blood reconstituted from plasma and blood cells, 10.0 mM, 24 h at 7 °C; read-out: Whole blood - % haemolysis
// reported hemolysis at 24 h, 10 mM for each item listed

molecule	hemolysis at 24 h, 10 mM, %
COc1cc(CCCCCCCCOP(=O)([O-])OCC[N+](C)(C)C)cc(OC)c1 [TC437]	92.5
COC(=O)c1c(CCCCCCCCOP(=O)([O-])OCC[N+](C)(C)C)cccc1OC [TC388]	14.5
COc1cccc(CCCCCCCCOP(=O)([O-])OCC[N+](C)(C)C)c1 [TC387]	75.3

###

// reported SI (CC50/EC50), promastigotes for each item listed
system: Leishmania amazonensis promastigotes; experiment: microbe, parasite or virus in culture; format: cell-based; conditions: CC50 J774A.1 / EC50 promastigotes

molecule	system.under.test	SI (CC50/EC50), promastigotes
COc1cccc(CCCCCCCCOP(=O)([O-])OCC[N+](C)(C)C)c1 [TC387]	Leishmania amazonensis promastigotes	34
COc1cc(CCCCCCCCOP(=O)([O-])OCC[N+](C)(C)C)cc(OC)c1 [TC437]	Leishmania amazonensis promastigotes	29
COC(=O)c1c(CCCCCCCCOP(=O)([O-])OCC[N+](C)(C)C)cccc1OC [TC388]	Leishmania amazonensis promastigotes	42

###

// reported CC50 at 24 h for each item listed
experiment: Macrophage cytotoxicity (MTT cell viability); format: cell-based, murine; settings: mouse, J774.A1 macrophages, J774A.1 cells

molecule	CC50 at 24 h / µM
COC(=O)c1c(CCCCCCCCOP(=O)([O-])OCC[N+](C)(C)C)cccc1OC	1630
COc1cccc(CCCCCCCCOP(=O)([O-])OCC[N+](C)(C)C)c1	956
CCCCCCCCCCCCCCCCOP(=O)([O-])OCC[N+](C)(C)C [MIL, hexadecylphosphocholine, reference compound]	77
COc1cc(CCCCCCCCOP(=O)([O-])OCC[N+](C)(C)C)cc(OC)c1	692
